# assay_system: ROCK I (Homo sapiens, UniProt Q13464)
# Sequence (Q13464 whole entry): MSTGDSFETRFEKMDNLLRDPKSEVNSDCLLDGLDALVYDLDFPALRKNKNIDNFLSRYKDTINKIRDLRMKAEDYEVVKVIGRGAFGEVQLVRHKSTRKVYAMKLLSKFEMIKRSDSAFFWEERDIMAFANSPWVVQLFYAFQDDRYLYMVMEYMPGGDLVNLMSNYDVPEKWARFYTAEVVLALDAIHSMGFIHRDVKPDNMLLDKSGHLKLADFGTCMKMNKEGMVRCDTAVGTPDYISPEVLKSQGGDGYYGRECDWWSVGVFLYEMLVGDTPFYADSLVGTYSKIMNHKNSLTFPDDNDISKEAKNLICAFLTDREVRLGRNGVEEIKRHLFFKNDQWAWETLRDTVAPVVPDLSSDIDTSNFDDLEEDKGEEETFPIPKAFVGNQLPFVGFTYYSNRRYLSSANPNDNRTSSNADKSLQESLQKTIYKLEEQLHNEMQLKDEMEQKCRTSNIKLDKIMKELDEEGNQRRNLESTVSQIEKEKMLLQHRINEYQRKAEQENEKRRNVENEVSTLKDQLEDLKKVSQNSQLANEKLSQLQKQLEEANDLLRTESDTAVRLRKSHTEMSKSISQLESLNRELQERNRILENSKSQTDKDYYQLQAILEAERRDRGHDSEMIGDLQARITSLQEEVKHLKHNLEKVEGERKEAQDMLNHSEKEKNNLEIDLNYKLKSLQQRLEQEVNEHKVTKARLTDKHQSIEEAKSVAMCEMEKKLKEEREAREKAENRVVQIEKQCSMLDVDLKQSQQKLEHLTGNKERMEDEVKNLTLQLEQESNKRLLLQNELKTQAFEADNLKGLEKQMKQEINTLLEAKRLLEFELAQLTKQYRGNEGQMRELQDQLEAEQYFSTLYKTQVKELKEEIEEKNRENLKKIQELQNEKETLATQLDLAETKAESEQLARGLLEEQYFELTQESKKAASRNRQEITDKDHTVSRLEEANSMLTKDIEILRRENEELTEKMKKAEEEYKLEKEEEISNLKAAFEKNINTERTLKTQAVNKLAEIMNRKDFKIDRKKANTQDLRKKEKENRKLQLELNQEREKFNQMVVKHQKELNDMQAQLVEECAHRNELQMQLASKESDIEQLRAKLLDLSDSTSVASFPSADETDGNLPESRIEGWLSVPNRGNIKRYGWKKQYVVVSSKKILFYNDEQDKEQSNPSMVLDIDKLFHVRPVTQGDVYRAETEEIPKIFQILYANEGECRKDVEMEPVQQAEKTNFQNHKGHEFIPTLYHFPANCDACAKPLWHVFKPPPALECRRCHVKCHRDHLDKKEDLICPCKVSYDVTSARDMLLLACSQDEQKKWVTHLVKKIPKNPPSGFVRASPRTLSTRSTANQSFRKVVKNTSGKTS
# protocol_summary: ROCK-I inhibition assay (radioactive enzyme assay, MBP substrate)
# Type: biochemical
# conditions: Table 6; enzyme inhibition data (Ki)
property: Ki

Please review the entries below; each comes with its answer.
O=C(c1cc(-c2c(Cl)cnc3[nH]ccc23)c[nH]1)N1CCCC1C(F)(F)F (stereo not shown): 0.5 to 5 µM
O=C(c1csc(-c2ccnc3[nH]ccc23)n1)N1CCC(CO)CC1: 0.5 to 5 µM

Alright, here's another compound for you.
# input compound: O=C(CC(F)(F)F)N1CCCC(Nc2c(Cl)cnc3[nH]ccc23)C1 (stereo not shown) ; wanted: its Ki
# output 0.5 to 5 µM

src = patent US8921376B2
